TEST_PROTOCOL: 26-week rat toxicity and toxicokinetic study
Assay type: in vivo
EXPERIMENTAL_PARAMETERS: female, Crl:CD(SD)IGS BR, rat, in vivo, po, 25 mg/kg/day, females, 25 mg/kg/day, Day 0
READOUT_KIND: Tmax (h)
The response must be a number in h with no trailing unit.

QUERY: Identify measured Tmax corresponding to "Clc1ccc([C@]23CNC[C@H]2C3)cc1Cl"
RESULT: 1

---

TEST_PROTOCOL: Single rising oral dose (10-150 mg IR) safety, tolerance and pharmacokinetics in healthy male volunteers
Assay type: in vivo, human
EXPERIMENTAL_PARAMETERS: human, plasma, oral, 100 mg, individual subject
READOUT_KIND: AUC(0-inf) (ng·h/mL)
The response must be a number in ng·h/mL with no trailing unit.

QUERY: Identify measured AUC(0-inf) corresponding to Clc1ccc([C@]23CNC[C@H]2C3)cc1Cl [amitifadine]
RESULT: 5010

---

TEST_PROTOCOL: Single dose 300 mg / 450 mg pharmacokinetic, safety and tolerability study in healthy male and female subjects
EXPERIMENTAL_PARAMETERS: both, human, plasma, oral, 450 mg
READOUT_KIND: MRT

QUERY: Identify measured MRT corresponding to Clc1ccc([C@]23CNC[C@H]2C3)cc1Cl [amitifadine]
RESULT: 6.3 to 6.4 h

---

TEST_PROTOCOL: Single rising oral dose (10-150 mg IR) safety, tolerance and pharmacokinetics in healthy male volunteers
Format: in vivo, human
EXPERIMENTAL_PARAMETERS: male, human, plasma, oral, 25 mg, Mean (n = 7); read-out: t1/2 (converted)
READOUT_KIND: half-life

QUERY: Identify measured half-life corresponding to Clc1ccc([C@]23CNC[C@H]2C3)cc1Cl [amitifadine]
RESULT: 3.15 h

---

TEST_PROTOCOL: Single rising oral dose (10-150 mg IR) safety, tolerance and pharmacokinetics in healthy male volunteers
Format: in vivo, human
EXPERIMENTAL_PARAMETERS: male, human, plasma, oral, 10 to 150 mg; read-out: mean Tmax
READOUT_KIND: Tmax

QUERY: Identify measured Tmax corresponding to "Clc1ccc([C@]23CNC[C@H]2C3)cc1Cl"
RESULT: 0.7 to 1.75 h

---

TEST_PROTOCOL: 13-week dog toxicity and toxicokinetic study
Format: in vivo
EXPERIMENTAL_PARAMETERS: female, beagle, dog, in vivo, po, 2 mg/kg/day, females, 2 mg/kg/day, Day 86
READOUT_KIND: Cmax (ng/mL)
The response must be a number in ng/mL with no trailing unit.

QUERY: Identify measured Cmax corresponding to "Clc1ccc([C@]23CNC[C@H]2C3)cc1Cl"
RESULT: 663

---

Entries and their half-life values follow.
TEST_PROTOCOL: Single dose 300 mg / 450 mg pharmacokinetic, safety and tolerability study in healthy male and female subjects
EXPERIMENTAL_PARAMETERS: both, human, plasma, po, 450 mg, t½ (Harmonic mean), single oral 450 mg DOV 21,947 HCl IR; N = 10
The response must be a number in min with no trailing unit.

INSERT INTO results (compound, recorded_measurement) VALUES
  ('O=C1NCC2(c3ccc(Cl)c(Cl)c3)CC12 (centres unmarked) [EB-10101]', 1190);

Please turn your attention to the following entry.
QUERY: Identify measured half-life corresponding to Clc1ccc([C@]23CNC[C@H]2C3)cc1Cl [amitifadine]
RESULT: 226
